Listed next: entries and their corresponding pIC50.
System: KB
Assay: Inhibitory concentration that reduced the viability of KB cell population by 50%.
Assay type: functional, cell-based
Conditions: Homo sapiens
pIC50: −log10 of the molar value.
measuredParameter: pIC50

- CCCC(=O)Nc1cc(C(=O)Nc2cc(C(=O)NCCOc3ccc4nc5c(cc4c3)Cn3c-5cc4c(c3=O)COC(=O)C4(O)CC)n(COC)c2)n(COC)c1 (racemic): 5.49
- COc1cccc2c1C(=O)c1c(O)c3c(c(O)c1C2=O)C[C@@](O)(C(=O)CO)C[C@@H]3O[C@H]1C[C@H](N)[C@H](O)[C@H](C)O1: 7.82
- CCC1(O)C(=O)OCc2c1cc1n(c2=O)Cc2cc3cc(OCC(=O)ONc4cc(C(=O)Nc5cc(C(=O)Nc6cc(C(=O)NCCCN(C)C)n(COC)c6)n(COC)c5)n(COC)c4)ccc3nc2-1 (racemic): 5.26
- CCC1(O)C(=O)OCc2c1cc1n(c2=O)Cc2cc3cc(OCC(=O)ONc4cc(C(=O)Nc5cc(C(=O)NCCCN(C)C)n(COC)c5)n(COC)c4)ccc3nc2-1 (racemic): 6.18
- CCC1(O)C(=O)OCc2c1cc1n(c2=O)Cc2cc3cc(OCCNC(=O)c4cc(NC(=O)c5cc(NC(=O)c6ccc(NC(=O)CCCN(C)C)n6COC)cn5COC)cn4COC)ccc3nc2-1 (racemic): 6.00
- CCCC(=O)Nc1ccc(C(=O)Nc2cc(C(=O)Nc3cc(C(=O)NCCOc4ccc5nc6c(cc5c4)Cn4c-6cc5c(c4=O)COC(=O)C5(O)CC)n(COC)c3)n(COC)c2)n1COC (racemic): 5.29
- CCCC(=O)Nc1cn(COC)c(C(=O)Nc2cn(COC)c(C(=O)NCCOc3ccc4nc5c(cc4c3)Cn3c-5cc4c(c3=O)COC(=O)C4(O)CC)n2)n1 (racemic): 5.51
- CCCC(=O)Nc1cc(C(=O)NCCOc2ccc3nc4c(cc3c2)Cn2c-4cc3c(c2=O)COC(=O)C3(O)CC)n(COC)c1 (centres undefined): 4.82
- Cn1cc(NC(=O)c2cc(NC(=O)c3cc(NC=O)cn3C)cn2C)cc1C(=O)NCCC(=N)N: 5.08

Entry source: ChEMBL document CHEMBL1130394
